Biological target: hERG potassium channel (Homo sapiens, UniProt Q12809)
Construct: expressed in transfected cells; host or cells: T-REx-293
Sequence (Q12809 whole entry): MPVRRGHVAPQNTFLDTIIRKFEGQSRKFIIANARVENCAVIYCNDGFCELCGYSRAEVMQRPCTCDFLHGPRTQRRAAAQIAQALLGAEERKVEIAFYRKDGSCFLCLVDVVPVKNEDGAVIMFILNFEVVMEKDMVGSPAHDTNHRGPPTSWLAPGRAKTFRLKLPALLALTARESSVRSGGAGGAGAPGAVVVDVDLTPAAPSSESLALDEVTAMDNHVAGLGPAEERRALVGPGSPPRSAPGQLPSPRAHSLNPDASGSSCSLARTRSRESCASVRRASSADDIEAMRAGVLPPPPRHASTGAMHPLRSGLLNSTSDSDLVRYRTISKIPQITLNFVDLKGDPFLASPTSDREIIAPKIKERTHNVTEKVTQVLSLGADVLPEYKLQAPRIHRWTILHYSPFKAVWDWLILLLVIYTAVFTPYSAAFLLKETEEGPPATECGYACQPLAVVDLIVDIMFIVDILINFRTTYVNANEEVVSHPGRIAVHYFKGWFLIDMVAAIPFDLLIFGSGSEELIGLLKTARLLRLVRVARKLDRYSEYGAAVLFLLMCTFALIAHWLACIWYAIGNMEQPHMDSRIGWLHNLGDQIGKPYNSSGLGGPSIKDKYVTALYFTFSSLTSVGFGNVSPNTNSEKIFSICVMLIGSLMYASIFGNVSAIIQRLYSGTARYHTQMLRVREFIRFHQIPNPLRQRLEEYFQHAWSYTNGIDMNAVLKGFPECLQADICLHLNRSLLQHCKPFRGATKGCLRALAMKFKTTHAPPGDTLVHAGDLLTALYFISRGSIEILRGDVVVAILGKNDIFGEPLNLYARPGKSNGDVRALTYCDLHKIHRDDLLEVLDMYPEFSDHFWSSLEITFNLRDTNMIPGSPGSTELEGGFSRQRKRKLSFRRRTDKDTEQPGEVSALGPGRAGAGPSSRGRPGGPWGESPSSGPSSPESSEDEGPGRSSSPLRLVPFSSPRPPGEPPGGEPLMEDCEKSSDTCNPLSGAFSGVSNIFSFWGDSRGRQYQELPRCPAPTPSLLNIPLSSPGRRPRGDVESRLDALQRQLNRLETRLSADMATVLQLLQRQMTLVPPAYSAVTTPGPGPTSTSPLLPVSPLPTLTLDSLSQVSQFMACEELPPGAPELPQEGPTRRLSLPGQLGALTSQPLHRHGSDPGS
Test: Thallium flux assay, hERG-expressing cells
Format: cell-based
Conditions: thallium flux, hERG inhibition; average ± SEM; read-out: Potency

smiles.data	IC50
Cc1cc(NC(=O)Nc2ccc(F)c(F)c2)n(-c2ccccc2)n1	10.1 µM

---

Target: hERG (Homo sapiens)
Construct: Ricerca (contract laboratory that ran the panel)
Sequence (Q12809 whole entry): as above
Assay: Radioligand displacement (Ricerca)
Assay type: binding

smiles.data	inhibition at 10 µM [%]
Cc1cc(NC(=O)Nc2ccc(F)c(F)c2)n(-c2ccccc2)n1	10

---

Target: GIRK1/4 (Homo sapiens, UniProt P48544+P48549)
Construct: expressed in transfected cells; host or cells: HEK-293
Sequence (P48549 whole entry): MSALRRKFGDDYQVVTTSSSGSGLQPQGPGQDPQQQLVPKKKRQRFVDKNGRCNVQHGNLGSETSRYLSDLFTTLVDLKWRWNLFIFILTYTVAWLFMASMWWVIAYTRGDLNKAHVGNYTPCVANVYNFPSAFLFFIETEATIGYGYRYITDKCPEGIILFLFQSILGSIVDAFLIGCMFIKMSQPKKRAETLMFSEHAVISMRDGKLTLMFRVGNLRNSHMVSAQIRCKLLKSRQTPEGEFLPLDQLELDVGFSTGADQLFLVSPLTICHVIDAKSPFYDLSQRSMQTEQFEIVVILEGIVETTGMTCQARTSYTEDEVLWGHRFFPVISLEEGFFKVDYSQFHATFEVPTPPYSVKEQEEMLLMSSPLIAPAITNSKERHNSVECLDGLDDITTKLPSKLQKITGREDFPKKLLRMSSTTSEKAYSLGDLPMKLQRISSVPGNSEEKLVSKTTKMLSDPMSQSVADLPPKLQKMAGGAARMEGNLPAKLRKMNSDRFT
Sequence (P48544 whole entry): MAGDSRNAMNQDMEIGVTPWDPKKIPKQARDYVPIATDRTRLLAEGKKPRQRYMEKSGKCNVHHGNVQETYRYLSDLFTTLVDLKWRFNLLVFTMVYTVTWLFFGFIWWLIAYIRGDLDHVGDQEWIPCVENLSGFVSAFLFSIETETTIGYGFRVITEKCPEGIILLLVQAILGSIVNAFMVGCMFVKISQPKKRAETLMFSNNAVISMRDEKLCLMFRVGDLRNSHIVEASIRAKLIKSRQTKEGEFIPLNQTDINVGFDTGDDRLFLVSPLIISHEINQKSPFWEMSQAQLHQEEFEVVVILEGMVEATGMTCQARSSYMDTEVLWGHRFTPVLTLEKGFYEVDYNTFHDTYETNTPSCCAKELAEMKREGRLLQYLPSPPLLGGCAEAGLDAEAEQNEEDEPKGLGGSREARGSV
Assay: Thallium flux assay protocol (Examples 2 and 3), GIRK1/GIRK4 HEK-293 cells
Type: cell-based
Conditions: Table 4, analogs 8; triplicate determinations

smiles.data	reported.relation	EC50 (µM)
O=C(Cc1ccccc1Cl)Nc1cccc(OC(F)F)c1	=	7.8
O=C(Cc1ccccc1Cl)Nc1cccc(Cl)c1	=	1.8
O=C(Cc1ccccc1Cl)Nc1cc(Cl)cc(C(F)(F)F)c1	>	10
CC(C)(C)c1cccc(NC(=O)Cc2ccccc2Cl)c1	=	2.7
O=C(Cc1ccccc1Cl)Nc1ccc(Cl)c(C(F)(F)F)c1	=	0.24
